target: Voltage-gated L-type calcium channel (Homo sapiens, UniProt Q13936+Q13698+Q01668+O60840); assay: Calcium channel antagonistic activity relative to 2,6-Dimethyl-4-(2-nitro-phenyl)-1,4-dihydro-pyridine-3,5-dicarboxylic acid dimethyl ester(=100); type: functional, Cavia porcellus; conditions: guinea pig
ATTRIBUTE_MEASURED: Relative activity
Reply briefly: the number, and no unit.

>>> print(df.to_string())
                                   compound  attribute_measured  test_value
0  COC(=O)C1=C(C)NC(C)=C(C(=O)OC)C1c1ccc(N(C)C)cc1   Relative activity       0.005

Record COC(=O)C1=C(C)NC(C)=C(C(=O)OC)C1c1ccccc1 . Reported Relative activity: 18

Record COC(=O)C1=C(C)N=C(C)/C(=C(\O)OC)C1c1cccc(C)c1 (stereo not drawn) . Reported Relative activity: 4.6

Record COC(=O)C1=C(C)NC(C)=C(C(=O)OC)C1c1ccccc1[N+](=O)[O-] [NIFEDIPINE] . Reported Relative activity: 100

Record COC(=O)C1=C(C)N=C(C)/C(=C(\O)OC)C1c1cccc(C#N)c1 (stereo not drawn) . Reported Relative activity: 1.7

* * *

biological target: Voltage-gated L-type calcium channel (Homo sapiens, UniProt Q13936+Q13698+Q01668+O60840); assay: Calcium channel antagonistic activity relative to 2,6-Dimethyl-4-(2-nitro-phenyl)-1,4-dihydro-pyridine-3,5-dicarboxylic acid dimethyl ester(=100); type: functional, Cavia porcellus; settings: guinea pig
Catalogue of molecules with associated Relative activity

Please review the entries below; each comes with its answer.
                                   molecule  test_value
0  COC(=O)C1=C(C)N=C(C)/C(=C(\O)OC)C1c1ccc(C)cc1 (stereo not drawn)      < 0.05
1  CCOC(=O)C1=C(C)NC(C)=C(C(=O)OCC)C1c1ccccc1        ~ 18

Record for COC(=O)C1=C(C)N=C(C)/C(=C(\O)OC)C1c1ccc([N+](=O)[O-])cc1[N+](=O)[O-] (stereo not drawn) under target or system Voltage-gated L-type calcium channel (Homo sapiens, UniProt Q13936+Q13698+Q01668+O60840): Relative activity reported as < 0.05
